EXPERIMENTAL SYSTEM: Potassium voltage-gated channel subfamily KQT member 1 (Homo sapiens) (UniProt P51787)
Sequence (P51787 whole entry, looked up): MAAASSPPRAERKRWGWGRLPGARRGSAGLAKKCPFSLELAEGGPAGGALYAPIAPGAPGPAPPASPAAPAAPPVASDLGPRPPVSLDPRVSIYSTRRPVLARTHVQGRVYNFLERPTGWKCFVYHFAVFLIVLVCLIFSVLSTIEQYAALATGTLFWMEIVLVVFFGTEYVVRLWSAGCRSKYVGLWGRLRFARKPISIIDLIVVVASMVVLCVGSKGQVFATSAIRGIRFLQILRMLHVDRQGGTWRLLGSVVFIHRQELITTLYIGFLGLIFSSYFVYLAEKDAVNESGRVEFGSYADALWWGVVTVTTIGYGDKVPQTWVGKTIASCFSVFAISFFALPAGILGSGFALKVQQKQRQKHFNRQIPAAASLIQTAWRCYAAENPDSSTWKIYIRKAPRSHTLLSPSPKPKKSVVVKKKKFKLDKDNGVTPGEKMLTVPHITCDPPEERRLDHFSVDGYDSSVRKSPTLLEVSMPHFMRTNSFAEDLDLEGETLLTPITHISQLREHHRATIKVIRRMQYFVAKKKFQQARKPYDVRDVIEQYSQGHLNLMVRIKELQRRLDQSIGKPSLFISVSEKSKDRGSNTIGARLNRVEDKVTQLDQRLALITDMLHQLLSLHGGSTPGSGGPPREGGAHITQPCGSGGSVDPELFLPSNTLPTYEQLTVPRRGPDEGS
MEASUREMENT PROTOCOL: KCNQ1 potassium channel potentiators, confirmation, FluxOR thallium flux, CHO cells, duplicates (AID 493007)
MEASUREMENT SETUP: KCNQ1 cell line, FluxOR thallium flux fluorescence, at 10 µM, % of reference activator effect, buffer zero
Active and inactive are the calls of the source.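 How the source made its calls: active means potentiation averaged over duplicate wells exceeding buffer-only control mean by more than 3 SD; inactive means the rest.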
Choose the fitting class; nothing outside True = active, False = inactive is accepted.

Previously resolved entries follow.
{"MOLECULE": "CN1c2ccccc2C(O)=C(C(=S)Nc2ccc(Cl)cc2)S1(=O)=O", "ASSIGNED LABEL": "False"}
{"MOLECULE": "Cc1cc(/C=N/NC(=O)c2cccs2)c(C)n1-c1ccccc1", "ASSIGNED LABEL": "False"}
{"MOLECULE": "COc1ccc(C(=O)NC(=S)NNC(=O)c2cccc(C)c2)cc1", "ASSIGNED LABEL": "True"}

Which result was noted for this molecule in the test: O=C(COc1ccc(Cl)cc1)NNC(=O)C(=O)NC1CCCCC1
False

Which result was noted for this molecule in the test: Cc1ccc(NC2=C(NC(=O)c3ccccc3)C(=O)c3ccccc3C2=O)cc1Cl
False

Which result was noted for this molecule in the test: CCC(C)(C)NC(=O)C(c1ccncc1)N(Cc1cccs1)C(=O)Cn1nnc2ccccc21 (stereo unspecified)
False

Which result was noted for this molecule in the test: COc1ccc(OCc2cc(C(=O)N(C)CC3CCCCO3)no2)c(Cl)c1 (stereo unspecified)
True

Which result was noted for this molecule in the test: Cc1ccc(C)c(Cn2c(O)c(N=NC(=S)Nc3ccccc3F)c3ccccc32)c1
False

Which result was noted for this molecule in the test: CCOC(=O)c1c(N)sc(C(C)=O)c1C
False

Which result was noted for this molecule in the test: COc1ccc(-n2cc(CNC3CCN(C)CC3)c(-c3cccc(F)c3)n2)cc1
True

Which result was noted for this molecule in the test: O=c1c2c3c(sc2[nH]c(=S)n1Cc1ccco1)CCC3
True
